- Test system: NCI-H460 lung
- Test description: NCI tumour cell line growth inhibition, 48 h
TGI values, listed per item
Measured parameter: TGI (µM)

[[record]]
compound = "CCCCN1C(=O)NC(Cc2ccccc2)C1=O (stereo not given)"
unit_annotation = "µM"
reported_relation = ">"
test_value = 100

[[record]]
compound = "Cc1nc(NC(=O)CCCN2C(=O)c3cccc4cccc(c34)C2=O)sc1C(=O)Nc1cc(C(=O)NCCCN(C)C)n(C)c1"
unit_annotation = "µM"
reported_relation = ">"
test_value = 100

[[record]]
compound = "N/N=C1\\CCCc2c1no[n+]2[O-]"
unit_annotation = "µM"
reported_relation = ">"
test_value = 100

[[record]]
compound = "CC1C=CC(=O)C(n2cc(F)c(=O)[nH]c2=O)O1 (stereo not given)"
unit_annotation = "µM"
reported_relation = "="
test_value = 54.2

[[record]]
compound = "Nc1c(-c2ccc(Cl)cc2Cl)[n+]([O-])c2ccccc2[n+]1[O-]"
unit_annotation = "µM"
reported_relation = ">"
test_value = 100

[[record]]
compound = "CC(C)(C)c1ccc(C(O)c2ccc(C(C)(C)C)cc2)cc1"
unit_annotation = "µM"
reported_relation = "="
test_value = 26.6

[[record]]
compound = "COc1cc(-n2cc(-c3ccc(Cl)cc3)[nH]c2=O)cc(OC)c1OC"
unit_annotation = "µM"
reported_relation = ">"
test_value = 100

[[record]]
compound = "CCCCCCCC/C=C\\CCCCCCCC(=O)NCCN(CCN)C(=O)CCCCCCC/C=C\\CCCCCCCC"
unit_annotation = "µM"
reported_relation = ">"
test_value = 100

[[record]]
compound = "O=C1C=C(NCCc2cc(Br)c(O)c(Br)c2)C(=O)c2ncccc21"
unit_annotation = "µM"
reported_relation = "="
test_value = 4.8

[[record]]
compound = "CCn1cnc2c(Nc3cccc(Cl)c3)nc(N[C@@H]3CCCC[C@@H]3N)nc21"
unit_annotation = "µM"
reported_relation = "="
test_value = 3.7


---

TGI values, listed per item
- Test system: NCI-H23 lung
- Test description: NCI tumour cell line growth inhibition, 48 h
Measured parameter: TGI (µM)

[[record]]
compound = "CC(C)(C)C(=O)C(C(c1ccccc1)N1CCOCC1)N1CCOCC1 (stereo not given)"
reported_relation = ">"
test_value = 100

[[record]]
compound = "CCOC(=O)c1c(-c2ccc(OC)cc2)c(C#N)c(=S)n(C2OC(CO)C(O)C(O)C2O)c1-c1ccccc1 (stereo not given)"
reported_relation = ">"
test_value = 100

[[record]]
compound = "Oc1ccc(Cn2c(-c3ccc(O)c(O)c3)nc3ccccc32)cc1O"
reported_relation = "="
test_value = 75.4

[[record]]
compound = "COc1ccccc1CNCCCN1C(=O)c2ccc3c4c(ccc(c24)C1=O)C(=O)N(CCCNCCCN)C3=O"
reported_relation = "="
test_value = 2.55

[[record]]
compound = "CCOC(=O)C1=c2[nH]c3cccc4cccc(c43)n2C=C(C(C)=O)C1CC(C)=O (stereo not given)"
reported_relation = ">"
test_value = 100


---

- System: SF-268 CNS
- Test description: NCI tumour cell line growth inhibition, 48 h
Measured parameter: TGI

[[record]]
compound = "CC(C)=CC(=O)Cc1nc2cc(C)c(C)cc2[nH]c1=O"
test_value = "> 100 µM"

[[record]]
compound = "COc1cc([C@@H]2c3[nH]c4ccccc4c3C(Nc3ccc([N+](=O)[O-])cc3)[C@H]3COC(=O)N23)cc(OC)c1O (some centres undefined)"
test_value = "5.35 µM"

[[record]]
compound = "O=c1[nH]nc(Cc2ccc(Cl)cc2)n1/N=C\\c1ccc(/C=N/n2c(Cc3ccc(Cl)cc3)n[nH]c2=O)cc1"
test_value = "> 100 µM"

[[record]]
compound = "CCO[C@]12C[C@H](OC)[C@@]3(O)CC(C1[C@H]3O)C13C4C2[C@H](OC)C1[C@](COC)(CN4CC)[C@H](O)C[C@@H]3OC (some centres undefined)"
test_value = "> 100 µM"

[[record]]
compound = "CC(=O)N=c1ccc2nc3c(cc(N)c4ccccc43)oc-2c1"
test_value = "3.43 µM"

[[record]]
compound = "CCOC(=O)CCC(NC(=O)Cc1ccc(Oc2nc3ccccc3nc2-c2cccs2)cc1)C(=O)OCC (centres undefined)"
test_value = "12.6 µM"

[[record]]
compound = "COc1ccc(/C(C)=N/OC(=O)c2c(-c3ccccc3Cl)noc2C)cc1CN1CCOCC1"
test_value = "> 100 µM"

[[record]]
compound = "COc1ccc2c(c1)CC[C@@H]1[C@@H]2CC[C@]2(C)C(c3ccco3)=C(C=O)C[C@@H]12"
test_value = "> 100 µM"

[[record]]
compound = "C[C@@]12CCC(=O)C=C1CC[C@H]1C2=CC[C@]2(C)C1CC[C@@]2(C)O (some centres undefined)"
test_value = "> 100 µM"


---

- System: HL-60(TB) leukemia
- Test description: NCI tumour cell line growth inhibition, 48 h; in the data active means GI50 below about 0.43 µM; inactive means the rest
Outcome codes: active, inactive

[[record]]
compound = "COc1ccc(/C=C/c2n[nH]c3ccc(N4CCOC4=O)cc23)cc1"
qualitative_label = "inactive"

[[record]]
compound = "COc1ccc([N+](=O)[O-])c(S(=O)(=O)c2ccc(Cl)cc2)n1"
qualitative_label = "inactive"

[[record]]
compound = "CCn1cnc2c(Nc3cccc(Cl)c3)nc(N[C@@H]3CCCC[C@@H]3N)nc21"
qualitative_label = "inactive"

[[record]]
compound = "Nc1c(C(=O)Nc2ccccc2Cl)sc2nc3c(cc12)CCCCCC3"
qualitative_label = "inactive"

[[record]]
compound = "Cc1[nH]c(=O)[nH]c(=O)c1CO"
qualitative_label = "inactive"

[[record]]
compound = "COc1cc(-n2cc(-c3ccc(Cl)cc3)[nH]c2=O)cc(OC)c1OC"
qualitative_label = "inactive"

[[record]]
compound = "CSc1nc2sc3cc(Cl)ccc3n2c(=N)c1C#N"
qualitative_label = "inactive"

[[record]]
compound = "COc1cc(/C=C2\\COc3ccc(O)c(O)c3C2=O)cc(OC)c1"
qualitative_label = "inactive"

[[record]]
compound = "CC(=O)N=c1ccc2nc3c(cc(N)c4ccccc43)oc-2c1"
qualitative_label = "active"

[[record]]
compound = "COc1ccc(-c2ccc(C3CC(c4ccc(Cl)cc4)=NN3)o2)c([N+](=O)[O-])c1 (stereo not drawn)"
qualitative_label = "inactive"

[[record]]
compound = "COC1=CC(c2ccc[nH]2)=N/C1=C\\c1[nH]c(C)c(C(=O)CCCCC(=O)Nc2ccccc2)c1C"
qualitative_label = "inactive"

[[record]]
compound = "COc1cc2nc(Nc3cccc(F)c3)nc(Nc3cc(C)[nH]n3)c2cc1OC"
qualitative_label = "inactive"

[[record]]
compound = "COc1cc(-c2cc(-c3nc4ccc(Cl)cc4[nH]3)[nH]n2)cc(OC)c1OC"
qualitative_label = "inactive"


---

- Test system: MALME-3M melanoma
- Test description: NCI tumour cell line growth inhibition, 48 h; in the data active = GI50 below about 0.43 µM; inactive = the rest
Outcome codes: T (active), F (inactive)

[[record]]
molecule = "Nc1c(C(=O)Nc2ccccc2Cl)sc2nc3c(cc12)CCCCCC3"
qualitative_label = "F"

[[record]]
molecule = "COc1ccc([N+](=O)[O-])c(S(=O)(=O)c2ccc(Cl)cc2)n1"
qualitative_label = "F"

[[record]]
molecule = "COc1ccc2c(c1)CCC1C2CC[C@]2(C)/C(=N/OC(=O)Cc3ccccc3)CCC12 (stereo partly drawn)"
qualitative_label = "F"

[[record]]
molecule = "COc1cc(/C=C2\\COc3ccc(O)c(O)c3C2=O)cc(OC)c1"
qualitative_label = "F"

[[record]]
molecule = "CCn1cnc2c(Nc3cccc(Cl)c3)nc(N[C@@H]3CCCC[C@@H]3N)nc21"
qualitative_label = "F"

[[record]]
molecule = "Cc1[nH]c(=O)[nH]c(=O)c1CO"
qualitative_label = "F"

[[record]]
molecule = "C=C1C(=O)O[C@H]2[C@H]1CC/C(COC(=O)NCc1c[nH]c3ccc(Cl)cc13)=C\\CC[C@@]1(C)O[C@@H]21"
qualitative_label = "F"

[[record]]
molecule = "CCCCCCCC[N+](C)(CCCCCCCC)CCCCCCCC"
qualitative_label = "T"


---

- System: HT29 colon
- Test description: NCI tumour cell line growth inhibition, 48 h
Measured parameter: TGI

[[record]]
molecule = "O=C(/C=C\\c1ccc(Cl)cc1Cl)c1cccs1"
test_value = "64.5 µM"

[[record]]
molecule = "COc1ccc(C(c2ccccc2)C(C)C(=O)c2c(C)cc(C)cc2C)cc1 (centres undefined)"
test_value = "> 100 µM"

[[record]]
molecule = "CN(C)c1ccc(/C=C(\\NC(=O)c2ccccc2)C(=O)NC(CCC(=O)O)C(=O)O)cc1 (centres undefined)"
test_value = "> 100 µM"

[[record]]
molecule = "Clc1c(Cl)c2c(Cl)c(Cl)c1C[P+](c1ccccc1)(c1ccccc1)CC[P+](c1ccccc1)(c1ccccc1)Cc1c(Cl)c(Cl)c(c(Cl)c1Cl)C[P+](c1ccccc1)(c1ccccc1)CC[P+](c1ccccc1)(c1ccccc1)C2"
test_value = "10.3 µM"

[[record]]
molecule = "Nc1ncnc2c1ncn2C1OC(CO)=CC1O (centres undefined)"
test_value = "> 37.5 µM"

[[record]]
molecule = "O=C(Cc1ccc(Cl)c(Cl)c1)N(CCc1ccc(Cl)c(Cl)c1)CCN1CCCC1"
test_value = "3.56 µM"

[[record]]
molecule = "N/N=C1/CCCc2nonc21"
test_value = "> 100 µM"

[[record]]
molecule = "N#CCCN(CCC#N)c1ccc(/C=C2\\N=C(c3ccccc3)N(c3ccccn3)C2=O)cc1"
test_value = "> 100 µM"

[[record]]
molecule = "NC1=NNC2(C(N)=N1)c1ccccc1-c1ccccc12"
test_value = "> 10 µM"

